Biological target: N-terminally GST-tagged HCK (75-526) (Homo sapiens (Human), UniProt P08631)
Sequence (P08631 75-526): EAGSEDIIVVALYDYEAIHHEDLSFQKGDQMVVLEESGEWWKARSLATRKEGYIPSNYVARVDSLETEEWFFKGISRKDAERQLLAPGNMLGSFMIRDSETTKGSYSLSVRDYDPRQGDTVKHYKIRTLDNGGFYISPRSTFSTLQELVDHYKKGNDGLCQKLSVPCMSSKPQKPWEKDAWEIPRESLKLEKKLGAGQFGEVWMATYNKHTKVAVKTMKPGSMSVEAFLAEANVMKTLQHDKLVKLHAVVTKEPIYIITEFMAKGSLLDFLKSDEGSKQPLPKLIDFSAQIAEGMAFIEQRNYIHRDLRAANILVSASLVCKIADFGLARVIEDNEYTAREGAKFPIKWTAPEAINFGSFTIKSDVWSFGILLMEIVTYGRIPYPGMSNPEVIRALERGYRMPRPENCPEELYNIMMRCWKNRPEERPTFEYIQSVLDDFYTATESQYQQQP
Assay: HCK Kinase Assay (ProFluor Src-Family Kinase Assay)
Assay type: biochemical
pIC50: −log10 of the molar value.
Recorded pIC50 for the following molecules
property.measured: pIC50

>  <molecule>
[2H]c1c([2H])c([2H])c(Oc2ccc(-c3cn([C@H]4CC[C@H](N5CCN(C)CC5)CC4)c4ncnc(N)c34)cc2)c([2H])c1[2H] (single isomer, unassigned)

>  <test.result>
> 7.30

$$$$
>  <molecule>
[2H]C([2H])([2H])N1C([2H])([2H])C([2H])([2H])N([C@H]2CC[C@H](n3cc(-c4ccc(Oc5ccccc5)cc4)c4c(N)ncnc43)CC2)C([2H])([2H])C1([2H])[2H] (single isomer, unassigned)

>  <test.result>
5.00 to 6.60

$$$$
>  <molecule>
CN1CCN([C@H]2CC[C@H](n3cc(-c4ccc(Oc5ccccc5)cc4)c4c(N)ncnc43)CC2)CC1

>  <test.result>
> 7.30

$$$$
>  <molecule>
[2H]C([2H])([2H])N1C([2H])([2H])C([2H])([2H])N([C@H]2CC[C@@H](n3cc(-c4ccc(Oc5ccccc5)cc4)c4c(N)ncnc43)CC2)C([2H])([2H])C1([2H])[2H] (single isomer, unassigned)

>  <test.result>
> 7.30

$$$$

----------
Target: N-terminally GST-tagged HCK (75-526) (Homo sapiens (Human), UniProt P08631)
Assay: HCK Kinase Assay (ProFluor Src-Family Kinase Assay)
Type: biochemical
Conditions: HCK inhibitory activity, 50 μM ATP; read-out: HCK Activity

>  <compound>
COc1cc(-c2cn(C3CCN(C4CCN(C)CC4)CC3)c3ncnc(N)c23)ccc1Oc1ccccc1 [Example 149]

>  <IC50>
< 50 nM

$$$$
>  <compound>
Nc1ncnc2c1c(-c1ccc(Oc3ccccc3)cc1)cn2C1CCC(N2CC3CCC2CN3)CC1 (stereo not drawn) [Example 37]

>  <IC50>
< 50 nM

$$$$
>  <compound>
Nc1ncnc2c1c(-c1ccc(Oc3ccccc3)cc1)cn2C1CCC(O)(Cn2cnnn2)CC1 (stereo not drawn) [Example 102]

>  <IC50>
< 50 nM

$$$$
>  <compound>
CN[C@@H]1CCCN([C@H]2CC[C@@H](n3cc(-c4ccc(Oc5ccccc5)cc4)c4c(N)ncnc43)CC2)C1 [Example 61]

>  <IC50>
< 50 nM

$$$$
>  <compound>
Nc1ncnc2c1c(-c1ccc(Oc3ccccc3)cc1)nn2[C@H]1CC[C@H](n2cc(CO)cn2)CC1 [Example 138]

>  <IC50>
< 50 nM

$$$$
>  <compound>
Nc1ncnc2c1c(-c1ccc(Oc3ccccc3)cc1)cn2[C@H]1CC[C@H](N2CCC(N)CC2)CC1 [Example 52]

>  <IC50>
< 50 nM

$$$$
>  <compound>
Nc1ncnc2c1c(-c1ccc(Oc3ccccc3)cc1F)nn2[C@H]1CC[C@@H](N2CCN(CCO)CC2)CC1 [Example 11]

>  <IC50>
50 to 250 nM

$$$$
>  <compound>
CC[C@H]1CN([C@H]2CC[C@@H](n3cc(-c4ccc(Oc5ccccc5)cc4)c4c(N)ncnc43)CC2)CCN1 [Example 30]

>  <IC50>
50 to 250 nM

$$$$
>  <compound>
CN1CCN([C@H]2CC[C@H](n3cc(-c4ccc(Oc5ccccc5C#N)cc4)c4c(N)ncnc43)CC2)CC1 [Example 112]

>  <IC50>
< 50 nM

$$$$
>  <compound>
C[C@@H]1CN([C@H]2CC[C@H](n3nc(-c4ccc(Oc5ccccc5)cc4)c4c(N)ncnc43)CC2)CCN1 [Example 14]

>  <IC50>
< 50 nM

$$$$
>  <compound>
C[C@@H]1CN([C@H]2CC[C@@H](n3nc(-c4ccc(Oc5ccccc5)cc4F)c4c(N)ncnc43)CC2)CCN1 [Example 18]

>  <IC50>
250 to 10000 nM

$$$$
>  <compound>
Nc1ncnc2c1c(-c1ccc(Oc3ccccc3)cc1)cn2C1CCN(C(CO)CO)CC1 [Example 161]

>  <IC50>
< 50 nM

$$$$
>  <compound>
CN1CCN([C@H]2CC[C@H](n3nc(-c4ccc(Oc5ccccc5)cc4F)c4c(N)ncnc43)CC2)CC1 [Example 103]

>  <IC50>
< 50 nM

$$$$
>  <compound>
Nc1ncnc2c1c(-c1ccc(Oc3ccccc3)cc1)cn2[C@H]1CC[C@@H](N2CC(N)C2)CC1 [Example 78]

>  <IC50>
250 to 10000 nM

$$$$
>  <compound>
CCc1cc(NC(=O)Nc2ccc(-c3cn([C@H]4CC[C@H](N5CCN(C)CC5)CC4)c4ncnc(N)c34)cc2)no1 [Example 117]

>  <IC50>
50 to 250 nM

$$$$

Recorded values, source patent US11963960B2.
